Where a SMILES comes first, the peptide text is derived from it. [ ]: non-standard residue; d: D form. The star is where a group is joined. dHpg = N[C@@H](C(=O)O)c1ccc(O)cc1; Boc = CC(C)(C)OC(=O)*
Entries below carry reported IC50 on Serine protease 1 (Homo sapiens, UniProt P07477).
Sequence (P07477 whole entry): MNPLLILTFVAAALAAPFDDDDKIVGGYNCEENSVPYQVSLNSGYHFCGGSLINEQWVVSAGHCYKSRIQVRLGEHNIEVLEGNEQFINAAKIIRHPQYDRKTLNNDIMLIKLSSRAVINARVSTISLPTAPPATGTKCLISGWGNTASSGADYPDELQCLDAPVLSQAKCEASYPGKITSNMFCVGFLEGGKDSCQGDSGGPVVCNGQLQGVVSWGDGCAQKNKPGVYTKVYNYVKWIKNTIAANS
Quantity name: IC50

{"Molecule": "N=C(N)NCCC[C@@H](C=O)NC(=O)[C@@H]1CCCN1C(=O)[C@@H]1NCCc2ccccc21", "Quantity name": "IC50", "Observed value": "23 nM"}
{"Molecule": "CC(C)(C)OC(=O)NC(C(=O)N1CCC[C@H]1C(=O)NC(C=O)CCCN=C(N)N)c1cccc(C(F)(F)F)c1 (stereo partly drawn)", "Quantity name": "IC50", "Observed value": "19 nM"}
{"Molecule": "CC(C)(C)OC(=O)N[C@@H](C(=O)N1CCC[C@H]1C(=O)N[C@H](C=O)CCCN=C(N)N)c1ccc(O)cc1 (Boc-[dHpg]-Pro-Arg-aldehyde)", "Quantity name": "IC50", "Observed value": "17 nM"}

From: ChEMBL document CHEMBL1126581
